Listed below are compounds with pKi for Adenosine receptor A2a (Rattus norvegicus), each taken from published literature.
// pKi: -log10(molar conc.)

Data request: Annotate the compound COc1cccc(-c2cc(-c3ccc(C)o3)nc(N)n2)c1 with its measured pKi.
Data returned: 6.39

Data request: Check the records and state pKi for Nc1nc2c(cnn2CCCc2ccc(O)c(O)c2)c2nc(-c3ccco3)nn12
Data returned: 7.31

Data request: Please report the measured pKi for Cn1c(=O)c2c(nc(SCc3ccc(Cl)cc3)n2C)n(C)c1=O
Data returned: 4.29

Data request: Give the reported pKi for this compound. Cc1ccccc1CNc1ncnc2c1ncn2[C@@H]1O[C@H](CO)[C@@H](O)[C@H]1O
Data returned: 7.62

Data request: Using the record for Cn1c(=O)c2c(nc(/C=C/C(=O)O)n2C)n(C)c1=O , state its measured pKi.
Data returned: 4.38

Data request: Tell us which pKi value is on record for Cn1c(-c2ccccc2)nc2c1C1=NCCN1C(=O)N2
Data returned: 4.92

Data request: Provide pKi value for the following compound: Nc1nc(SCCC2COCCO2)nc2c1ncn2[C@@H]1O[C@H](CO)[C@@H](O)[C@H]1O (stereo partly specified)
Data returned: 5.96

Data request: Fill in pKi for record CCCOC(=O)c1c(-c2ccccc2)nc(CC)c(C(=O)SCCO)c1CCC
Data returned: 5.25

Data request: Give the reported value of pKi for this record: Cn1c(=O)c2c(nc3n2CCN(Cc2csc(-c4ccc(Cl)cc4)n2)C3)n(C)c1=O
Data returned: 7.21

Data request: Look up and report measured pKi for this entry: CCNC(=O)[C@H]1O[C@@H](n2cnc3c(N)ccnc32)[C@H](O)[C@@H]1O
Data returned: 6.24

Data request: Output measured pKi for this item: COc1ccccc1CN1CCN(c2nc(N)n3nc(-c4ccco4)nc3n2)CC1
Data returned: 6.42

* * *

Below, pKi values reported for UniProt:P30543 across several publications.
pKi: −log10 of the molar value.

Data request: State recorded pKi with UniProt:P30543, entry Nc1nc(N/N=C/[C@@H](O)[C@@H](O)[C@@H](O)CO)nc2c1ncn2[C@@H]1O[C@H](CO)[C@@H](O)[C@H]1O , no comment.
Data returned: < 6.00

Data request: Give UniProt:P30543 pKi for the following compound: Cc1ccc(-c2cc(-c3cccc(C(=O)N4CCCCC4)c3)nc(N)n2)o1
Data returned: 8.02

Data request: Fetch value of pKi on UniProt:P30543 for CCCOC(=O)c1c(-c2ccccc2)nc(CC)c(C(=O)SCCF)c1CCC .
Data returned: 4.61

Data request: // fetch pKi; item: C[C@@H](Cc1ccccc1)n1c2ccccc2c2c(N)nc(-c3ccccc3)nc21 ; system: UniProt:P30543
Data returned: < 4.52

Data request: Give pKi for this entry on UniProt:P30543: Cn1c(=O)c2c(nc3n2CCCN3CCOC(=O)Nc2ccccc2)n(C)c1=O
Data returned: < 5.00

Data request: Recall the reported pKi of CCCn1c(=O)c2c(nc3n2CCCN3CCc2ccc(OCC(=O)NCc3ccc(F)cc3)cc2)n(CCC)c1=O on UniProt:P30543 and write it down.
Data returned: 5.87

Data request: Look up and report pKi, with UniProt:P30543 as system, for Nc1nc(N/N=C/[C@@H](O)[C@H](O)[C@@H](O)[C@@H](O)CO)nc2c1ncn2[C@@H]1O[C@H](CO)[C@@H](O)[C@H]1O
Data returned: < 6.00

Data request: GET pKi | system: UniProt:P30543 | item: CCCSc1nc(SC(CC)C(N)=O)nc2c1cnn2-c1ccccc1 (stereo not drawn)
Data returned: < 4.41

Data request: # return pKi of Cc1ccc(CN2CCCn3c2nc2c3c(=O)n(C)c(=O)n2C)cc1 (system: UniProt:P30543)
Data returned: < 5.60

Data request: Provide UniProt:P30543 pKi reading for CCn1c(=O)c2c(nc3n2CCCN3c2ccc(OCCN(C)C)cc2)n(CC)c1=O .
Data returned: < 6.00

Data request: // fetch pKi for Nc1nc(N2CCN3C[C@@H](CN(Cc4ccc(F)cc4F)Cc4ccc(F)cc4F)CC[C@H]3C2)nc2nc(-c3ccco3)nn12 ; system: UniProt:P30543
Data returned: < 6.30

Data request: Enter pKi (test system UniProt:P30543) for C=C[C@H]1O[C@@H](n2cnc3c(NOC)nc(Cl)nc32)[C@H](O)[C@@H]1O
Data returned: < 5.00

Data request: Provide pKi, recorded with UniProt:P30543, of Nc1nc(-c2ccccc2)nc2oc(-c3ccc(Cl)cc3)nc12
Data returned: < 5.00

* * *

pKi: −log10 of the molar value.
This section presents pKi values reported for Adenosine receptor A2a (Rattus norvegicus) in the literature.

Data request: Report value only: pKi, Adenosine receptor A2a (Rattus norvegicus), CCCn1c(=O)[nH]c2nc(-c3ccc(OCC(=O)NCc4ccccc4)cc3)[nH]c2c1=O
Data returned: < 5.00

Data request: Recall the reported pKi of O=C(CCc1ccccc1Br)Nc1nc2ccccc2c(=O)s1 on Adenosine receptor A2a (Rattus norvegicus) and write it down.
Sequence (P30543 whole entry): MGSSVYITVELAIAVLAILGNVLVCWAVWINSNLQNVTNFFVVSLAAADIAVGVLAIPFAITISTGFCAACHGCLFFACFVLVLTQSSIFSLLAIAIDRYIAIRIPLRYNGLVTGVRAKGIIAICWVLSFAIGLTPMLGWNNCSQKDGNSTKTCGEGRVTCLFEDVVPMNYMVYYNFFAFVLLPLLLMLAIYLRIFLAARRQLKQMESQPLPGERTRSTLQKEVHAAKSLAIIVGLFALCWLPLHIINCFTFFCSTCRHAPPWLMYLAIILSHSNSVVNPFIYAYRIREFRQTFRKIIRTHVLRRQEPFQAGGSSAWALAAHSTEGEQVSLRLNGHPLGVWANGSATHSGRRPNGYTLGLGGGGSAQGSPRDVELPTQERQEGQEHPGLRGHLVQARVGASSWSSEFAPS
Data returned: < 5.00

Data request: Fill in pKi for Cn1c(=O)c2c(nc3n2CCN(C2Cc4ccccc4C2)C3)n(C)c1=O tested with Adenosine receptor A2a (Rattus norvegicus).
Data returned: < 5.00

Data request: Name the recorded pKi of Cn1c(=O)c2c(nc3n2CCN(CCOc2ccccc2)C3)n(C)c1=O , assay system Adenosine receptor A2a (Rattus norvegicus).
Data returned: < 6.00

Data request: Name the recorded pKi of N#Cc1ccc(-c2cn3nc(-c4ccco4)nc3c(N)n2)cc1 , assay system Adenosine receptor A2a (Rattus norvegicus).
Data returned: < 6.00

Data request: Fetch value of pKi on Adenosine receptor A2a (Rattus norvegicus) for Nc1nc2c3ccccc3[nH]c(=S)n2n1 .
Data returned: < 5.00

Data request: Tell me pKi of CN(NC(=S)Nc1ccccc1)c1nc(N)c2ncn([C@@H]3O[C@H](CO)[C@@H](O)[C@H]3O)c2n1 when tested on Adenosine receptor A2a (Rattus norvegicus).
Data returned: < 6.00

Data request: Under Adenosine receptor A2a (Rattus norvegicus), report pKi for Cc1ccc([C@H](C)n2c3ccccc3c3c(N)nc(-c4ccccc4)nc32)cc1
Data returned: < 4.52

Data request: Enter measured pKi, system Adenosine receptor A2a (Rattus norvegicus), for the compound shown: C[C@H](c1ccccc1)n1c2ccccc2c2c(O)nc(-c3ccccc3)nc21
Data returned: < 4.52

Data request: Give reported pKi for OCC1OC(n2cnc3c(NCc4cccc(I)c4)nc(Cl)nc32)C(O)C1F (stereo not given) (Adenosine receptor A2a (Rattus norvegicus))
Data returned: < 5.00
